Target: mGluR3 (Mus musculus, UniProt Q9QYS2)
Sequence (Q9QYS2 23-879): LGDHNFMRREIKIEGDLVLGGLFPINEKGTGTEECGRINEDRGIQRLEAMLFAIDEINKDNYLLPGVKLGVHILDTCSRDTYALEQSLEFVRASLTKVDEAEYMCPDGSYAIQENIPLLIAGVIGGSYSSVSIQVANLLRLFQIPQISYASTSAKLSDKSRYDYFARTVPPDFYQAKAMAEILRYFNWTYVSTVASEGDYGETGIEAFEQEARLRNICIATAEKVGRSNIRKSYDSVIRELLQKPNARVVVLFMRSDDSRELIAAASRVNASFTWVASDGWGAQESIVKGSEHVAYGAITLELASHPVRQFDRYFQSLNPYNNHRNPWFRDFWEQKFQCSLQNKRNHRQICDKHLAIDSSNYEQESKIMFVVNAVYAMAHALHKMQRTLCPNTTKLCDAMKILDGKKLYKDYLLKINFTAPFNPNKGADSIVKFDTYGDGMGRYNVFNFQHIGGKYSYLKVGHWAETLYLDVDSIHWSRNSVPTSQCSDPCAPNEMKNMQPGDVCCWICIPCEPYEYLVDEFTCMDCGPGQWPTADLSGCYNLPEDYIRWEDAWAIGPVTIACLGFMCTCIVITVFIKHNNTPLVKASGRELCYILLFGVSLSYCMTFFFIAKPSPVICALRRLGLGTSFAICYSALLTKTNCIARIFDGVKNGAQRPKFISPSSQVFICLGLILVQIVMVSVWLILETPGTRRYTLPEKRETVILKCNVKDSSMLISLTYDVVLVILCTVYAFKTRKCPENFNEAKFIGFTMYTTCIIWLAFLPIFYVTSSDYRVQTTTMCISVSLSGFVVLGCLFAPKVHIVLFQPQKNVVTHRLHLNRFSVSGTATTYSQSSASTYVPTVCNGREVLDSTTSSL
Assay: Single-molecule imaging of mGluR3 diffusive dynamics (MSD, DAv, VB-HMM diffusion states) in HEK293 cells
Settings: IC50 of the LY379268 dependent change of DAv, FIG. 4(a), absence of other ligands, n=20 cells
Measured parameter: IC50 (nM)
Give a bare numeral; the unit nM is implied.

Query string: Identify measured IC50 associated with N[C@@]1(C(=O)O)CO[C@H]2[C@H](C(=O)O)[C@H]21 [LY379268]
Result string: 1190

----------
Target: UniProt:Q9QYS2
Assay: Single-molecule imaging of mGluR3 diffusive dynamics (MSD, DAv, VB-HMM diffusion states) in HEK293 cells
Details: IC50 of the LY379268 dependent change of DAv, FIG. 4(b), presence of 100 nM LY341495, n=20 cells
Measured parameter: IC50 (µM)
Number in µM, nothing else.

Query string: Output IC50 of N[C@@]1(C(=O)O)CO[C@H]2[C@H](C(=O)O)[C@H]21
Result string: 1.03

----------
Molecular target: mGluR3 (Mus musculus, UniProt Q9QYS2)
Assay: [3H]-LY341495 binding experiment, HEK293 membrane fraction expressing mGluR3
Measured parameter: IC50 (µM)
Report the figure in µM without appending any unit label.

Query string: Provide only the value of recorded IC50 for N[C@@]1(C(=O)O)CO[C@H]2[C@H](C(=O)O)[C@H]21
Result string: 0.55

----------
Target: mGluR3 (Mus musculus, UniProt Q9QYS2)
Experiment: [35S]-GTPγS binding experiment (G protein activation ability of mGluR3, purified Go protein)
Conditions: absence of other ligands, FIG. 4(e), n=3; read-out: EC50 of the LY379268-dependent increase of the G protein activation ability of mGluR3
Measured parameter: pEC50
Please treat pEC50 as minus the base-10 logarithm of the molar concentration.

Query string: Provide measured pEC50 on mGluR3 (Mus musculus, UniProt Q9QYS2) for N[C@@]1(C(=O)O)CO[C@H]2[C@H](C(=O)O)[C@H]21 please.
Result string: 7.60
